All values here come from patent US6855710B2.

parameter: melting point

> print(dat)
                                item.smiles         result
1  CCOC(=O)CCNCc1cccc(N/C(=C2\C(=O)Nc3ccc([N+](=O)[O-])cc32)c2ccccc2)c1  142 to 145 °C
2  CS(=O)(=O)Nc1ccc(N/C(=C2\C(=O)Nc3ccccc32)c2ccccc2)cc1  299 to 301 °C
3  O=C1Nc2ccc([N+](=O)[O-])cc2/C1=C(/Nc1ccc(CCN2CCC(O)CC2)cc1)c1ccccc1  274 to 276 °C
4  CN(C)CCN(C)C(=O)CN(c1cccc(N/C(=C2\C(=O)Nc3ccccc32)c2ccccc2)c1)S(C)(=O)=O  197 to 199 °C

---

Each item that follows carries a reported melting point.
parameter: melting point

> print(dat)
                                item.smiles         result
1  CN(C)CCCNS(=O)(=O)c1ccc(N/C(=C2\C(=O)Nc3ccc([N+](=O)[O-])cc32)c2ccccc2)cc1  268 to 269 °C
2  CC(=O)Nc1cccc(N/C(=C2\C(=O)Nc3ccccc32)c2ccccc2)c1  285 to 288 °C
3  CN(C)CCNS(=O)(=O)c1ccc(N/C(=C2\C(=O)Nc3ccc([N+](=O)[O-])cc32)c2ccccc2)cc1  260 to 261 °C
4  CN(C)CC(=O)N(C)c1ccc(N/C(=C2\C(=O)Nc3ccccc32)c2ccccc2)cc1.Cl  290 to 292 °C

---

Each item that follows carries a reported melting point.
parameter: melting point

> print(dat)
                                   compound      parameter         result
1  COc1cccc(/C(Nc2ccc(CN(C)C)cc2)=C2/C(=O)Nc3ccccc32)c1 [Example 217]  melting point  193 to 194 °C
2  O=C1Nc2ccccc2/C1=C(/Nc1ccc(NS(=O)(=O)CCN2CCOCC2)cc1)c1ccccc1 [Example 381]  melting point  240 to 242 °C
3  COCC(=O)Nc1ccc(N/C(=C2\C(=O)Nc3ccccc32)c2ccccc2)cc1 [Example 40]  melting point  238 to 240 °C
4  CN(Cc1ccc(N/C(=C2\C(=O)Nc3ccc([N+](=O)[O-])cc32)c2ccccc2)cc1)c1ccccc1 [Example 234]  melting point  228 to 230 °C

---

Each item that follows carries a reported melting point.
parameter: melting point

> print(dat)
                                item.smiles         result
1  CN(C)Cc1cccc(N/C(=C2\C(=O)Nc3ccc([N+](=O)[O-])cc32)c2ccccc2)c1  214 to 217 °C
2  CN(Cc1ccc(N/C(=C2\C(=O)Nc3ccc([N+](=O)[O-])cc32)c2ccccc2)cc1)C1CCCC1         228 °C
3  CN(c1cccc(N/C(=C2\C(=O)Nc3ccccc32)c2ccccc2)c1)S(C)(=O)=O         261 °C
4  CNCCc1ccc(N/C(=C2\C(=O)Nc3ccc([N+](=O)[O-])cc32)c2ccccc2)cc1  250 to 252 °C
5  CC(C)(C)OC(=O)NCc1ccc(N/C(=C2\C(=O)Nc3ccc([N+](=O)[O-])cc32)c2ccc(CNC(=O)c3ccccc3C(=O)O)cc2)cc1  138 °C (dec.)
6  CS(=O)(=O)NCc1ccc(N/C(=C2\C(=O)Nc3ccc([N+](=O)[O-])cc32)c2ccccc2)cc1  294 to 296 °C
7  COCCNCC(=O)N(C)c1ccc(N/C(=C2\C(=O)Nc3ccccc32)c2ccccc2)cc1  186 to 188 °C
